- subject-of-test: UniProt:P56817
- measurement-description: BACE1 fluorescent kinetic assay (cleavage of peptide substrate WABC-6)
- Format: biochemical
- measurement-conditions: 5 μM inhibitor; 10 nM enzyme, 25 μM substrate, pH 4.5, room temperature; read-out: BACE-1 % Inhibition at 5 μM
// label 0 strictly below 40% in inhibition at 5 µM; label 1 otherwise

Below are worked cases with known answers.
N#Cc1cccc(COc2ccc3cc(-c4ccccc4Cl)n(Cc4cccc(N)n4)c3c2)c1: label 1
Nc1cccc(Cn2c(-c3ccccc3Cl)cc3ccc(C#CCCO)cc32)n1: label 1
COc1cccc(COc2ccc3cc(-c4ccccc4Cl)n(Cc4cccc(N)n4)c3c2)c1: label 0
Nc1cccc(Cn2c(-c3ccccc3Cl)cc3ccc(OCc4ccccc4)cc32)n1: label 0
COc1ccc2cc(-c3ccccc3Cl)n(Cc3cccc(N)n3)c2c1: label 0
Nc1cccc(Cn2c(-c3ccccc3Cl)cc3ccc(OCc4cccc(C(F)(F)F)c4)cc32)n1: label 0

Decide: is the reported value of inhibition at 5 µM for `Nc1cccc(Cn2c(-c3ccccc3Cl)cc3ccc(OCc4cccc(F)c4)cc32)n1` equal to or greater than 40%?
label 1

Hi, just wondering whether `COCCC#Cc1ccc2cc(-c3ccccc3Cl)n(Cc3cccc(N)n3)c2c1` shows inhibition at 5 µM of 40% or higher.
label 1

---

In this section we review reported melting point values for a set of compounds.

// below: answered compounds
COc1cccc(COc2ccc3cc(-c4ccccc4Cl)n(Cc4cccc(N)n4)c3c2)c1 [Example 14]: 67 to 69 °C
Nc1cccc(Cn2c(-c3ccccc3Cl)cc3ccc(OCc4cccc(C(F)(F)F)c4)cc32)n1 [Example 13]: 60 to 62 °C
Nc1cccc(Cn2c(-c3ccccc3)cc3ccccc32)n1 [Example 30]: 45 to 47 °C
Nc1cccc(Cn2c(-c3ccccc3Cl)cc3ccc(Oc4cncnc4)cc32)n1 [Example 17]: 115 to 117 °C
Nc1cccc(Cn2c(-c3ccccc3Cl)cc3ccc(OCc4cc(F)ccc4F)cc32)n1 [Example 12]: 65 to 68 °C

Suppose we examine the compound N#Cc1cccc(COc2ccc3cc(-c4ccccc4Cl)n(Cc4cccc(N)n4)c3c2)c1 [Example 10] ; what melting point value has been reported?
65 to 67 °C

Query: melting point; subject: COc1ccc2cc(-c3ccccc3Cl)n(Cc3cccc(N)n3)c2c1 [Example 16]
174 to 176 °C

// lookup melting point for CCCOc1ccc2cc(-c3ccccc3Cl)n(Cc3cccc(N)n3)c2c1 [Example 15]
128 to 130 °C

Which melting point value belongs to Nc1cccc(Cn2c(-c3ccccc3Cl)cc3ccc(Br)cc32)n1 [Example 19] ?
189 to 191 °C

Please give the measured melting point for this compound: Nc1cccc(Cn2c(-c3ccccc3Cl)cc3ccc(OCc4ccccc4)cc32)n1 [Example 9]
64 to 66 °C

// query melting point value for entry Nc1cccc(Cn2c(-c3ccccc3Cl)cc3ccc(OCc4cccc(F)c4)cc32)n1 [Example 11]
60 to 64 °C

---

- subject-of-test: human BACE1 (Homo sapiens, UniProt P56817)
- Sequence (P56817 46-501): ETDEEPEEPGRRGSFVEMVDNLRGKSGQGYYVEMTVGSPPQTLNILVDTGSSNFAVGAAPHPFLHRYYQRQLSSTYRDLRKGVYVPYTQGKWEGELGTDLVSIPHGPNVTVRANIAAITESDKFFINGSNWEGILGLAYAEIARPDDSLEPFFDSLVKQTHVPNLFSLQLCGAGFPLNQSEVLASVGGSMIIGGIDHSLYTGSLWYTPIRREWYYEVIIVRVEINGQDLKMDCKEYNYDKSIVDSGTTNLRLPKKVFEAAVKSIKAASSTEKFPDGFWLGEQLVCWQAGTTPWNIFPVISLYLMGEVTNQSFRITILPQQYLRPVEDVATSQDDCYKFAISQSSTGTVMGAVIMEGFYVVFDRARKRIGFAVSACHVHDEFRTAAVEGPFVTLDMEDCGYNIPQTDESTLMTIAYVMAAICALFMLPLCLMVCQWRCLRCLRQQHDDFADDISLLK
- measurement-description: BACE1 fluorescent kinetic assay (cleavage of peptide substrate WABC-6)
- Assay type: biochemical
- measurement-conditions: 5 μM inhibitor; 10 nM enzyme, 25 μM substrate, pH 4.5, room temperature; read-out: BACE-1 % Inhibition at 5 μM
measured-parameter: inhibition at 5 µM
Remember to follow the number with its unit.

Before answering, review these 2 worked examples.
CCCOc1ccc2cc(-c3ccccc3Cl)n(Cc3cccc(N)n3)c2c1: 38.6%
Nc1cccc(Cn2c(-c3ccccc3)cc3ccccc32)n1: 24.6%

Would you kindly look at the next entry?
Give the reported inhibition at 5 µM for `Nc1cccc(Cn2c(-c3ccccc3Cl)cc3ccc(C#CCCF)cc32)n1` (system: human BACE1 (Homo sapiens, UniProt P56817)).
56.6%
